protocol.notes: Plasma pharmacokinetics of acoziborole and SCYX-3109 by LC-MS/MS, phase I mass balance study
Assay type: in vivo, human
test.conditions: human, plasma; 960 mg single oral dose of acoziborole, N = 6, mean ± SD; read-out: AUC0–∞ in plasma
parameter.measured: AUC(0-inf) (µg·h/mL)

                                 cpd_smiles  parameter_measured  obs_value
0  CC1(C)OB(O)c2cc(NC(=O)c3ccc(F)cc3C(F)(F)F)ccc21          AUC(0-inf)       6450

###

protocol.notes: Plasma pharmacokinetics of acoziborole and SCYX-3109 by LC-MS/MS, phase I mass balance study
Assay type: in vivo, human
test.conditions: male, human, plasma, po, 960 mg, 960 mg single oral dose, N = 6; read-out: median tmax in plasma
parameter.measured: Tmax

In [3]: df
Out[3]:
                                 cpd_smiles  obs_value
0  CC1(C)OB(O)c2cc(NC(=O)c3ccc(F)cc3C(F)(F)F)ccc21       48 h
